Molecular target: T1, cynomolgus monkey FLT3 (cFLT3) expressed on RMA cells (cynomolgus monkey, UniProt A0A2K5VQ48 27-993)
T1 construct: whole, on cells; also called RMA-cFLT3; cynomolgus FLT3
T1 sequence: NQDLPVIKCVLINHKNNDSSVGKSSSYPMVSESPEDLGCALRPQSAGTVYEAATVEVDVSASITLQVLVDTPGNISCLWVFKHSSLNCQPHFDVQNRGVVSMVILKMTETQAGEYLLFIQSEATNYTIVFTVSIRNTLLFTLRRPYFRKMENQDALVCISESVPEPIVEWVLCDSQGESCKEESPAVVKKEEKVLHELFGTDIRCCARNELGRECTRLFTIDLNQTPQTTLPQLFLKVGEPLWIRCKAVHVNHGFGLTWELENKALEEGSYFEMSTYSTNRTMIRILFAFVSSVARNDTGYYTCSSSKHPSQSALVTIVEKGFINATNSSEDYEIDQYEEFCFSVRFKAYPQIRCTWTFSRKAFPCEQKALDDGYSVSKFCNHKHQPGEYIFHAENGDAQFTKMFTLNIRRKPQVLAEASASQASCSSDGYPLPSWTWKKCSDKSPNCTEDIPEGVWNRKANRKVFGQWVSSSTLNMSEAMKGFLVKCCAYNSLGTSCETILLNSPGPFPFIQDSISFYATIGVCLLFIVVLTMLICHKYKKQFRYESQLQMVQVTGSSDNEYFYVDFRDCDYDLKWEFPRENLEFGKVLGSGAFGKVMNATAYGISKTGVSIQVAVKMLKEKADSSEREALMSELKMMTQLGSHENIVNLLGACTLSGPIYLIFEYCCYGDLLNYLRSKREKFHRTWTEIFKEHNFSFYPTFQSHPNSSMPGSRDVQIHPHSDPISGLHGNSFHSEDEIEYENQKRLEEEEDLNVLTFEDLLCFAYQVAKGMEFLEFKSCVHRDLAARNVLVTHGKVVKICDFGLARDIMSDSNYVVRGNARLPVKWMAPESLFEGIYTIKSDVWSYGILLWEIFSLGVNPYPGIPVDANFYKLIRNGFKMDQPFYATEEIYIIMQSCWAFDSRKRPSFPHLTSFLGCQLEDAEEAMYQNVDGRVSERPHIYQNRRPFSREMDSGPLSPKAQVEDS
Assay: flow cytometry, purified mAb on RMA-cFLT3 cells
measured-attribute: Max MFI (MFI)
One number for each entry, in MFI.

Worked set:
1A2.A3 (antibody, V domains shown, Purified murine mAb from a hybridoma subclone) VH: EVQLQESGPELVKPGASVKISCKASGYSFTGYYIHWVKQSPEESLEWIGEIYPNTGITTYNQKFTAKATLTVDKSSNTAYMQLKSLTSEDSAVYYCTRWGDYYGRDYWGQGTSVTVSS VL: DIVLTQSPASLAVSLGQRATISCRASETVDTHGNSFMHWYQQKPGQPPKLLIYRASNLESGIPARFSGSGSRTDFTLTINPVEADDVATYYCQQSNEDPRTFGGGTKLEIK = 2830
11F4.B9 (antibody, V domains shown, Purified murine mAb from a hybridoma subclone) VH: EVQLQESGPELVKPGASVKISCKASGYSFTGYYIHWVKQGPEKSLEWIGEIIPSTGSTIYNQKFKAKATLTVDKSSSTAYLQLKSLTSEDSAVYYCERWGDYYGRDYWGQGTSVTVSS VL: DIVLTQSPASLAVSLGQRATISCRASESVDIYGNSFMHWYQQKPGQPPKLLIYRASNLESGIPARFSGSGSRTDFTLTINPVEADDVATYYCQQSNEDPRTFGGGTKLEIK = 2590

Next item in the queue.
Any idea what its Max MFI is? The binder is 14A5.E8 (antibody, V domains shown, Purified murine mAb from a hybridoma subclone) VH: EVQLQESGAELVQPGASVRLSCKASGYTFTSYWINWVKQRPGQGLEWIGNIYPGSSIINYNENFKNRATLTVDTSSSTAYMQLSSLTSDDSAVYYCARRVVYLYFDYWGQGTTLTVSS VL: QIVLTQSPAIMSASPGEKVTMTCSASSSVSYMHWYQQKSGTSPKRWIYDTSKLASGVPARFSGSGSGTSYSLTISSMEAEDAATYYCQQWTSKSPTFGGGTKLEIK
1780
